The measurements presented in this section are drawn from PubChem BioAssay (NCI).

Below: a set of entries, each annotated with reported growth.
Test system: SK-OV-3 ovarian
PROTOCOL: NCI-60 one-dose screen, 48 h (100 = growth as untreated, 0 = no growth, -100 = all killed)
RECORDED CONDITIONS: 10 µM unless noted
About 83,000 compounds went through this panel and 20% of them were active in at least one assay; those are over-represented in the sample as a whole. The source made the active and inactive calls. The calls were made as follows: active = growth percent below 10; inactive = the rest.

{"columns": ["COMPOUND", "TARGET", "READOUT VALUE"],
 "data": [
  ["COc1cc(NCCCCC(C)N)c2nccc(C)c2c1 (stereo not drawn)", "SK-OV-3 ovarian", "93.3% (inactive)"],
  ["O=c1c2sc3ccccc3c2nnn1-c1ccc(F)c(Cl)c1", "SK-OV-3 ovarian", "-8.62% (active)"],
  ["CN1CCN(Cc2ccc(NC(=O)c3cncc(C#Cc4ccc(N)nc4)c3)cc2C(F)(F)F)CC1", "SK-OV-3 ovarian", "-11% (active)"]
]}

The compound listed as COc1ccc(-c2nsc3c2NC(=O)CC3c2cccc(F)c2)cc1 (stereo not drawn) has a reported growth of 58.9% (inactive)

The compound listed as Nc1nc(N)c2c(n1)NC(c1sc(Cl)nc1Cl)CC(c1ccccc1)=N2 (stereo not drawn) has a reported growth of 74% (inactive)

The compound listed as N#Cc1c(N)c(C(=O)c2ccc3c(c2)OCCO3)n2c1CCCC2 has a reported growth of 31.3% (inactive)

====

System: MCF7 breast
PROTOCOL: NCI-60 one-dose screen, 48 h (100 = growth as untreated, 0 = no growth, -100 = all killed)
RECORDED CONDITIONS: 10 µM unless noted
About 83,000 compounds went through this panel and 20% of them were active in at least one assay; those are over-represented in the sample as a whole.
Below: a set of entries, each annotated with reported growth.
Write down the numeric answer in % and omit the unit.

Worked cases, answers included:
{"columns": ["COMPOUND", "MEASUREMENT KIND", "READOUT VALUE"],
 "data": [
  ["Nc1nc(N)c2c(n1)NC(c1sc(Cl)nc1Cl)CC(c1ccccc1)=N2 (stereo not given)", "growth", 31.3],
  ["O=[N+]([O-])c1ccccc1CN1CCCCC1", "growth", 108],
  ["FC(F)(F)c1ccc(/C=N/Nc2nnc3n2N=C(c2ccc(Cl)cc2)CS3)cc1", "growth", 61.2],
  ["COc1cccc(CC(C)=C(c2ccc(OCCCN(C)C)cc2)c2ccc(OCCCN(C)C)cc2)c1", "growth", -73.6]
]}

Next compound, growth to be filled in.
The compound listed as CN(C)c1ccc(C(c2ccccc2)c2ccc(N(C)C)cc2)cc1 has a reported growth of 90.3

====

System: SF-268 CNS
PROTOCOL: NCI-60 one-dose screen, 48 h (100 = growth as untreated, 0 = no growth, -100 = all killed)
RECORDED CONDITIONS: 10 µM unless noted
The panel holds about 83,000 compounds, 20% with a hit somewhere; the sample as a whole holds those more often. The source made the active and inactive calls. How the source made its calls: active means growth percent below 10; inactive means the rest.
Below: a set of entries, each annotated with reported growth.

Worked cases, answers included:
{"columns": ["COMPOUND", "READOUT VALUE"],
 "data": [
  ["CCCCCc1c(C)[nH]c(/C=C2\\N=C(c3ccc[nH]3)C=C2CC)c1C", "-75.8% (active)"],
  ["CCN(C(=O)Nc1cccc2ccccc12)c1ccccc1", "104% (inactive)"],
  ["c1ccc(-c2[nH]c3ccccc3c2-c2ccccc2)cc1", "106% (inactive)"]
]}

The compound listed as COc1cc(C2CC(c3cccc(Nc4ccnc5cc(Cl)ccc45)c3)=NN2c2ccc(Cl)cc2)cc(OC)c1OC (centres undefined) has a reported growth of 51.9% (inactive)

====

Tested on: A498 renal
PROTOCOL: NCI-60 one-dose screen, 48 h (100 = growth as untreated, 0 = no growth, -100 = all killed)
RECORDED CONDITIONS: 10 µM unless noted
The panel holds about 83,000 compounds, 20% with a hit somewhere; the sample as a whole holds those more often.
Grouping key: growth. Bins: low end (below 60%), middle (60% to below 90%), high end (90% or more)

{"columns": ["COMPOUND", "ASSIGNED CATEGORY"],
 "data": [
  ["CCN(CC)CCCC(C)Nc1cnc(C(=O)Nc2cccc3ccc(OC)nc23)cn1 (centres undefined)", "low end"],
  ["O=C1C=CC(=O)N1c1cccc(N2C(=O)C=CC2=O)c1", "high end"],
  ["CCNC(=S)N(Cc1ccccc1)Cc1ccccc1", "high end"],
  ["O=C(/C=C/c1cc([N+](=O)[O-])ccc1Cl)c1ccccc1", "middle"],
  ["COc1cc2cc(C(=O)Nc3ccccc3)c(N)nc2cc1OC", "low end"]
]}

# evaluate next
Category of COc1ccc(/C=C/C(=O)c2ccc(NC(=O)CSc3nnc(-c4ccc(Cl)cc4)n3-c3ccccc3)cc2)cc1 , please. middle

====

Tested on: SW-620 colon
PROTOCOL: NCI-60 one-dose screen, 48 h (100 = growth as untreated, 0 = no growth, -100 = all killed)
RECORDED CONDITIONS: 10 µM unless noted
The panel holds about 83,000 compounds, 20% with a hit somewhere; the sample as a whole holds those more often.
Below: a set of entries, each annotated with reported growth.
Write down the numeric answer in % and omit the unit.

The molecule listed as C/C(=N\NC(=S)Nc1ccccc1)c1ccccn1 has a reported growth of 35

====

Test system: SF-268 CNS
PROTOCOL: NCI-60 one-dose screen, 48 h
RECORDED CONDITIONS: 10 µM unless noted
This is part of a sample that, as a whole, favours compounds with a hit. Of some 83,000 tested, about 20% had one in any assay. Calls of active or inactive are those of the source. Rule for the calls: active = growth percent below 10; inactive = the rest.
Outcomes you can answer with include only these: active, inactive

{"columns": ["COMPOUND", "TARGET", "ASSIGNED CATEGORY"],
 "data": [
  ["CCCCCCCCCCCCCCCc1cc(O)ccc1[N+](=O)[O-]", "SF-268 CNS", "inactive"],
  ["COc1ccc(/C=C/C(=O)c2ccc(NC(=O)CSc3nnc(-c4ccc(Cl)cc4)n3-c3ccccc3)cc2)cc1", "SF-268 CNS", "inactive"]
]}

# evaluate next
Short answer needed: outcome of this test for C#CC[C@@H]1C[C@]2(C)[C@H]3CC=C4[C@H]5[C@@H](C)[C@H](C)CC[C@]5(C(=O)NCCCN5CCN(CCCN)CC5)CC[C@@]4(C)[C@]3(C)CC[C@H]2C(C)(C)[C@H]1OC(C)=O ? inactive

====

Test system: OVCAR-5 ovarian
PROTOCOL: NCI-60 one-dose screen, 48 h
RECORDED CONDITIONS: 10 µM unless noted
Protocol: Growth inhibition of the OVCAR-5 human tumor cell line is measured as a screen for anti-cancer activity. Cells are grown in 96 well plates and exposed to the test compound for 48 hours. Compounds are tested at a single concentration, which is 10^-5 M for most compounds. The reported endpoint is percent growth (GI% or GIPRCNT), where numbers from 0 - 100% represent growth inhibition, and numbers from -100% - 0 represent cell death. For example, a value of 40 represents 60% growth inhibition. […]
About 83,000 compounds went through this panel and 20% of them were active in at least one assay; those are over-represented in the sample as a whole. The source made the active and inactive calls. Rule for the calls: active = growth percent below 10; inactive = the rest.
Outcomes you can answer with include only these: yes (active), no (inactive)

# count of solved cases: 3
{"columns": ["MOLECULE", "ASSIGNED CATEGORY"],
 "data": [
  ["CCCCCCCCCCCCCCCc1cc(O)ccc1[N+](=O)[O-]", "no"],
  ["CC(=O)c1c(O)c(C)c(O)c2c1OC1=CC(=O)/C(=C(/C)N)C(=O)C12C (centres undefined)", "no"],
  ["Cc1n(Cc2ccc3ccccc3n2)cc[n+]1Cc1ccc2ccccc2c1", "yes"]
]}

# evaluate next
Short answer needed: outcome of this test for NC(=Nc1ccccc1)SCCCSC(N)=Nc1ccccc1 ? no

====

Test system: MALME-3M melanoma
PROTOCOL: NCI-60 one-dose screen, 48 h (100 = growth as untreated, 0 = no growth, -100 = all killed)
RECORDED CONDITIONS: 10 µM unless noted
The panel holds about 83,000 compounds, 20% with a hit somewhere; the sample as a whole holds those more often.
Below: a set of entries, each annotated with reported growth.
Write down the numeric answer in % and omit the unit.

{"columns": ["COMPOUND", "UNITS TEXT", "READOUT VALUE"],
 "data": [
  ["CCN(CC)CCCNc1cccc2c(C)cc(OC)nc12", "%", 107],
  ["Cc1cc(C)c2c(n1)sc1c(Nc3ccc(OCc4ccccc4)cc3)ncnc12", "%", 88.6],
  ["COc1cc(C)c2c(=O)c3c(oc2c1)C(=O)c1c(O)c(OC)cc(O)c1C3=O", "%", -23.8]
]}

The compound listed as Fc1[nH]nc2ccc([C@@H]3Nc4ccc5[nH]ncc5c4[C@H]4C5CCC(C5)[C@@H]34)cc12 (stereo not given in full) has a reported growth of 48.5

The compound listed as CC(=O)O[C@H]1[C@H](CC#CC#CC[C@@H]2C[C@]3(C)[C@H]4CC=C5[C@H]6[C@@H](C)[C@H](C)CC[C@]6(C(=O)NCCN(CCN)CCN)CC[C@@]5(C)[C@]4(C)CC[C@H]3C(C)(C)[C@H]2OC(C)=O)C[C@]2(C)[C@H]3CC=C4[C@H]5[C@@H](C)[C@H](C)CC[C@]5(C(=O)NCCN(CCN)CCN)CC[C@@]4(C)[C@]3(C)CC[C@H]2C1(C)C has a reported growth of 67.8

The compound listed as Fc1ccc(-c2ccnc3nc(-c4ccncc4)nn23)cc1 has a reported growth of 114

The compound listed as Cc1ccc(CSCc2ccc(C(=O)NC3CC3)o2)cc1 has a reported growth of 96.4

The compound listed as Cc1cc(Cl)c2ccc(N(C)C)cc2n1 has a reported growth of 108
